# System: MDA-MB-231 breast
# assay: NCI-60 one-dose screen, 48 h (100 = growth as untreated, 0 = no growth, -100 = all killed)
# experimentalParameters: 10 µM unless noted
This is part of a sample that, as a whole, favours compounds with a hit. Of some 83,000 tested, about 20% had one in any assay.
Group membership follows growth per the scheme Low = under 30%, Medium = from 30% up to 90%, High = 90% and over

Past entries and their recorded results:
CN1CCN(Cc2ccc(NC(=O)c3cncc(C#Cc4cnc5cccnn45)c3)cc2C(F)(F)F)CC1 ... Low
C#CC[C@@H]1C[C@]2(C)[C@H]3CC[C@@H]4[C@H]5C(C(=C)C)CC[C@]5(C(=O)NCCCN5CCN(CCCN)CC5)CC[C@@]4(C)[C@]3(C)CC[C@H]2C(C)(C)[C@H]1OC(C)=O (stereo not given in full) ... Low

Bin? "COc1ccc(-c2cnc3ccnn3c2-c2cc(OC)c(OC)c(OC)c2)cc1"
Medium

Bin? "CCCCCCCCCCCCCCCCCC1=NC(C)(C)CN1C(C)(C)CO"
Low

Bin? "O=C(NO)c1ccc(NCc2csc3ccccc23)cc1"
Medium

Bin? "O=C(Nc1cccc(Cl)c1)Nc1cc(C(F)(F)F)ccc1Cl"
Low
